Tested on: Influenza A virus
test: Antiviral activity against Influenza A virus (A/Ned/378/05(H1N1)) infected in dog MDCK cells assessed as reduction in virus-induced cytopathogenicity incubated for 7 days by MTS assay
Format: functional, organism-based
experimentalParameters: Influenza A virus, A/Ned/378/05(H1N1), MDCK, 168 h
endpointName: EC50

compound: O=C1O[C@H]([C@@H](O)Cn2ccnn2)C(OCc2ccccc2)=C1OCc1ccccc1
EC50: 35.1 µM

compound: CC(N)C12CC3CC(CC(C3)C1)C2 (stereo not drawn) [RIMANTADINE]
EC50: > 200 µM

Reported Influenza A virus EC50 for item NC(=O)c1ncn([C@@H]2O[C@H](CO)[C@@H](O)[C@H]2O)n1 [RIBAVIRIN] was 18.2 µM

====

Entries annotated with measured MCC at 72 h
test: Cytotoxicity against human HELF cells assessed as minimum cytotoxic concentration by observing alteration in cell morphology incubated for 3 days by microscopic analysis
Assay type: cell-based
experimentalParameters: HELF cells

See these solved cases before continuing.
compound: Cc1cn([C@H]2C[C@H](F)[C@@H](CO)O2)c(=O)[nH]c1=O [ALOVUDINE]
MCC at 72 h: > 250 µM
--
compound: COc1ccccc1-c1cn(C/C=C2\OC(=O)C(OCc3ccccc3)=C2OCc2ccccc2)nn1
MCC at 72 h: 100 µM

Just so you know, measured MCC at 72 h for `CCCCc1cn(C/C=C2\OC(=O)C(OCc3ccccc3)=C2OCc2ccccc2)nn1` came out at 100 µM

====

test: Cytotoxicity against dog MDCK cells assessed as reduction in cell viability incubated for 3 days by coulter counter method
Format: cell-based, Canis lupus familiaris
experimentalParameters: MDCK cells
endpointName: CC50 at 72 h

Just so you know, measured CC50 at 72 h for `NC(=O)c1ncn([C@@H]2O[C@H](CO)[C@@H](O)[C@H]2O)n1` came out at > 100 µM

====

Test system: HFF
test: Cytotoxicity against human HFF cells assessed as reduction in cell viability incubated for 72 hrs by MTT assay
Format: cell-based
endpointName: IC50 (µM)
Give the quantity in µM, number only.

See these solved cases before continuing.
substanceSmiles: O=C1O[C@H]([C@@H](O)Cn2cc(-c3cc(C(F)(F)F)cc(C(F)(F)F)c3)nn2)C(OCc2ccccc2)=C1OCc1ccccc1
IC50 (µM): 80.7
--
substanceSmiles: CCCCc1cn(C[C@H](O)[C@H]2OC(=O)C(OCc3ccccc3)=C2OCc2ccccc2)nn1
IC50 (µM): 26.3
--
substanceSmiles: C[Si](C)(C)c1cn(C[C@H](O)[C@H]2OC(=O)C(OCc3ccccc3)=C2OCc2ccccc2)nn1
IC50 (µM): 20

Reported HFF IC50 for item `Cc1ccc(S(=O)(=O)NCc2cn(C[C@H](O)[C@H]3OC(=O)C(OCc4ccccc4)=C3OCc3ccccc3)nn2)cc1` was 0.05

====

test: Cytotoxicity against human HELF cells assessed as reduction in cell viability incubated for 3 days by coulter counter method
Assay type: cell-based
experimentalParameters: 72 h
endpointName: CC50 (µM)
Give the quantity in µM, number only.

substanceSmiles: C[Si](C)(C)c1cn(C[C@H](O)[C@H]2OC(=O)C(OCc3ccccc3)=C2OCc2ccccc2)nn1
u: µM
CC50: 22.3

Next up:
Just so you know, measured CC50 for `O=C1O/C(=C\Cn2cc(-c3cccc(O)c3)nn2)C(OCc2ccccc2)=C1OCc1ccccc1` came out at 11.1
